Reported phage ELISA signal ratio values follow for various binders
Target: CKS1B 1-79 CKS (domain begin residue: 1, domain end residue: 79), P61024
Sequence (P61024 whole entry): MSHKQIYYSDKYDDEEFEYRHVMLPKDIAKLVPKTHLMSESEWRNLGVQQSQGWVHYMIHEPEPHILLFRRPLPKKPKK
Experiment: phage ELISA signal ratio (GST-PRM binding over GST background); higher = stronger binding of peptide-phage to the PRM

{"columns": ["binder", "phage ELISA signal ratio"],
 "data": [
  ["WDGQAWHLSDPYLWEM", 17.9],
  ["GPLAWFLEDPYSSRVG", 11.1],
  ["SQPEQMQWHTYDPYDL", 30.4],
  ["GWEPQWFPSEHLADGN", 7.45],
  ["MDSWHYDMIPGEWLRV", 34.3],
  ["MTWTATWYASDPYMEV", 28.8]
]}
